Tgt: Class D beta-lactamase OXA 23 (A. baumannii NCTC 13301) (Acinetobacter baumannii, UniProt Q9L4P2)
Construct: preincubated mixture of crude enzyme and the compounds; endogenous in cells; host or cells: A. baumannii NCTC 13301
Sequence (Q9L4P2 18-273): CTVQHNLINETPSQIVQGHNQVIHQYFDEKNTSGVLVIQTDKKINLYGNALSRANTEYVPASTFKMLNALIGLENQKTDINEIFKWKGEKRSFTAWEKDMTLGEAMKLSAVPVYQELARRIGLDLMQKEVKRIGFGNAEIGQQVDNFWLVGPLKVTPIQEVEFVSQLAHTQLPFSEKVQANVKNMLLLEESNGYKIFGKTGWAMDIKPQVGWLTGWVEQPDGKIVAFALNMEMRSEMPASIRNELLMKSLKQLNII
Measurement notes: Beta-lactamase enzyme inhibition (Nitrocefin, crude enzyme)
Type: biochemical
Cond: Class D, A. baumannii NCTC 13301 (OXA 23); read-out: Beta-lactamase enzyme inhibition IC50
Reported values of pIC50 for individual entries
To interpret pIC50, take it as minus log10 of a concentration measured in moles per litre.

The following molecules have reported results that may help.
O=C(C[C@H]1CCCCN1)NNC(=O)[C@@H]1CC[C@@H]2CN1C(=O)N2OS(=O)(=O)O [Example 4] :: 5.53
O=C(CC1CCNCC1)NNC(=O)[C@@H]1CC[C@@H]2CN1C(=O)N2OS(=O)(=O)O [Example 6] :: 5.79
O=C(C[C@@H]1CCCCN1)NNC(=O)[C@@H]1CC[C@@H]2CN1C(=O)N2OS(=O)(=O)O [Example 3] :: 5.68

For this molecule ( O=C(CC1CNCCN1)NNC(=O)[C@@H]1CC[C@@H]2CN1C(=O)N2OS(=O)(=O)O (mixture of isomers) [Example 7] ), measured pIC50 is 5.55

For this molecule ( O=C(C[C@@H]1CCCN1)NNC(=O)[C@@H]1CC[C@@H]2CN1C(=O)N2OS(=O)(=O)O [Example 1] ), measured pIC50 is 5.62

The reported value for O=C(C[C@@H]1CCCNC1)NNC(=O)[C@@H]1CC[C@@H]2CN1C(=O)N2OS(=O)(=O)O [Example 5] in terms of pIC50 is 5.76

* * *

Tgt: Class D beta-lactamase OXA 26 (A. baumannii NCTC 13303) (Acinetobacter baumannii, UniProt Q9F0V2)
Sequence (Q9F0V2 entry or part of it): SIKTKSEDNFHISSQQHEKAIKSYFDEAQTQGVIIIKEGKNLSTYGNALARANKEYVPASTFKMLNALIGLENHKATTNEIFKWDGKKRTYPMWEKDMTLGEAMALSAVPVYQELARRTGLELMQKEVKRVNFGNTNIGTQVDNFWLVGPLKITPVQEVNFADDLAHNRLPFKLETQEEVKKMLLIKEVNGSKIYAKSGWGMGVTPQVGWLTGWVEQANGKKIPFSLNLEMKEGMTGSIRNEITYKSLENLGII
Measurement notes: Beta-lactamase enzyme inhibition (Nitrocefin, crude enzyme)
Assay type: biochemical
Cond: A. baumannii NCTC 13303 (OXA 26), read-out: Beta-lactamase enzyme inhibition IC50
// IC50 lookup, one value per entry
Kindly answer with a numeric value in µM, unit omitted.

NC(=O)[C@@H]1CC[C@@H]2CN1C(=O)N2OS(=O)(=O)O [Avibactam, avibactam, reference compound] :: 10.1

Below: the item to evaluate.
Measured IC50, O=C(C[C@@H]1CCCN1)NNC(=O)[C@@H]1CC[C@@H]2CN1C(=O)N2OS(=O)(=O)O : 4.77

* * *

Tested on: K. pneumoniae H521 (KPC, SHV, TEM)
Measurement notes: Antibacterial activity (MIC), agar dilution per CLSI
Assay type: cell-based
Cond: Klebsiella pneumoniae; K. pneumoniae H521 (KPC, SHV, TEM); read-out: MIC
Readout: MIC (µg/mL)
Just the number in µg/mL, nothing appended.

// below: answered molecules
O=C(C[C@@H]1CCCN1)NNC(=O)[C@@H]1CC[C@@H]2CN1C(=O)N2OS(=O)(=O)O :: 0.5
NC(=O)[C@@H]1CC[C@@H]2CN1C(=O)N2OS(=O)(=O)O [Avibactam, avibactam, reference compound] :: 16

Turning now to a further molecule:
Looking up O=C(CC1CNCCN1)NNC(=O)[C@@H]1CC[C@@H]2CN1C(=O)N2OS(=O)(=O)O (mixture of isomers) , I see its MIC listed as 4
